src = the supplement of paper PMC7877785

- test-details: self-splicing fitness, log relative to wild type (ln ratio); higher = more splicing; Tetrahymena group I intron in knt gene, E. coli kanamycin selection, DiMSum; sequences stand for … in CUCUCU…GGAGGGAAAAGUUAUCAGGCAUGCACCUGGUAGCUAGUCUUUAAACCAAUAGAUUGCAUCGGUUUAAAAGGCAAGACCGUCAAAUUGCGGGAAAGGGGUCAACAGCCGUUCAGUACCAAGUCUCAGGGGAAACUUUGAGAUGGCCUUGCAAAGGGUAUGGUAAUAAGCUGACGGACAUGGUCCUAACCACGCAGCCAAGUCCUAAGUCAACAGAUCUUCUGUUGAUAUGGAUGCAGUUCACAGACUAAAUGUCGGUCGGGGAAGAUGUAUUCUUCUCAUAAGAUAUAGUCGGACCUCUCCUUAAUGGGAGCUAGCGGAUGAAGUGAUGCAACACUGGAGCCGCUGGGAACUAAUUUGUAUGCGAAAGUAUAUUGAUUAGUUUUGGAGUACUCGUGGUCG;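 also: selection with 25 µg/mL kanamycin versus none on LB agar overnight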
- details: 30 °C
Output True for self-splicing fitness (ln) not less than -2; output False otherwise.

1) CAUAAGCAAUAUUACGACUG True

Now turn to the next sequence.
I'd appreciate it if you could say whether AUCAAGCAAUAUUACGCGUU has self-splicing fitness (ln) at least equal to -2.
False

====

- test-details: self-splicing fitness, log relative to wild type (ln ratio); higher = more splicing; Tetrahymena group I intron in knt gene, E. coli kanamycin selection, DiMSum; sequences stand for … in CUCUCU…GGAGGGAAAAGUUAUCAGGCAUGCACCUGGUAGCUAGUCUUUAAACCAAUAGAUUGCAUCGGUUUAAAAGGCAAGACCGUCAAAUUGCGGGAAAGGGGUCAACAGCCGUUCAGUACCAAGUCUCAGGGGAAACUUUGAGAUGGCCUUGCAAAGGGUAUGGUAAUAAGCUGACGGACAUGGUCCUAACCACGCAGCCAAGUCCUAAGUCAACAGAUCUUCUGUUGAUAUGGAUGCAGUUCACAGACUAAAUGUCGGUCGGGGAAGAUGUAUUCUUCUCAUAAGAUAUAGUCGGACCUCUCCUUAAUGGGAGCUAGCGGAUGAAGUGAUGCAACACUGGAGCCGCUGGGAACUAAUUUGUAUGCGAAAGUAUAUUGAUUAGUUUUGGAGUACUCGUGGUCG
- details: 30 °C
Each record here notes measured self-splicing fitness (ln).
Lab note: write the figure by itself, no unit.

1. AGUCAGCAAUAUUACGAGCU -1.97
2. UAUUAGCAAUAUUACGCAGA -1.96

Could you now consider this next sequence?
The reported value for GGCCAGCAAUAUUACGGGAA in terms of self-splicing fitness (ln) is -1.98

====

- test-details: self-splicing fitness, log relative to wild type (ln ratio); higher = more splicing; Tetrahymena group I intron in knt gene, E. coli kanamycin selection, DiMSum; sequences stand for … in CUCUCU…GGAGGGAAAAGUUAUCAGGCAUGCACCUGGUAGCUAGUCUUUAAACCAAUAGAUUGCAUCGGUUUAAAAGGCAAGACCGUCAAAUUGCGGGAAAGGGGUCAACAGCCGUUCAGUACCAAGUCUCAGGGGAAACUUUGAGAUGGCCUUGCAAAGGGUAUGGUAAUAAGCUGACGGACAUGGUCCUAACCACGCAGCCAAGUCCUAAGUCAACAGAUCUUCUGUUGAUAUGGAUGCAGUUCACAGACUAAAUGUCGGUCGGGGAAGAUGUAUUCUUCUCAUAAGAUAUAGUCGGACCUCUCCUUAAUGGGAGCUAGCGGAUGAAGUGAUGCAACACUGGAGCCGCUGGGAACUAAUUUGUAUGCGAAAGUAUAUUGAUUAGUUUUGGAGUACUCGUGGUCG
- details: 30 °C
quantity-measured: self-splicing fitness (ln)
Lab note: write the figure by itself, no unit.

1. AUCAAGCAAUAUUACGGUUA -1.06
2. CCCUAGCAAUAUUACGCCGA -3.85
3. UGAAAGCAAUAUUACGAGUC -3.42
4. UCAUAGCAAUAUUACGCCUG -0.427

The reported value for UCCCAGCAAUAUUACGAGGG in terms of self-splicing fitness (ln) is -3.14

The reported value for GAAGAGCAAUAUUACGAGCG in terms of self-splicing fitness (ln) is -3.17

The reported value for UAAAAGCAAUAUUACGAGGU in terms of self-splicing fitness (ln) is -4.31

The reported value for AUCAAGCAAUAUUACGUCGA in terms of self-splicing fitness (ln) is -1.36

The reported value for CCAUAGCAAUAUUACGUUUC in terms of self-splicing fitness (ln) is -3.12

The reported value for CCUUAGCAAUAUUACGUUCG in terms of self-splicing fitness (ln) is -3.37

The reported value for CUAAAGCAAUAUUACGGUCG in terms of self-splicing fitness (ln) is 0.0851

The reported value for AUCUAGCAAUAUUACGUUCA in terms of self-splicing fitness (ln) is -1.33

The reported value for ACUUAGCAAUAUUACGUAGA in terms of self-splicing fitness (ln) is -3.26

The reported value for UCCUAGCAAUAUUACGGGAC in terms of self-splicing fitness (ln) is -3.32

The reported value for CGCAAGCAAUAUUACGAGCG in terms of self-splicing fitness (ln) is -3

The reported value for CGCUAGCAAUAUUACGUCAG in terms of self-splicing fitness (ln) is -1.4

====

- test-details: self-splicing fitness, log relative to wild type (ln ratio); higher = more splicing; Tetrahymena group I intron in knt gene, E. coli kanamycin selection, DiMSum; sequences stand for … in CUCUCU…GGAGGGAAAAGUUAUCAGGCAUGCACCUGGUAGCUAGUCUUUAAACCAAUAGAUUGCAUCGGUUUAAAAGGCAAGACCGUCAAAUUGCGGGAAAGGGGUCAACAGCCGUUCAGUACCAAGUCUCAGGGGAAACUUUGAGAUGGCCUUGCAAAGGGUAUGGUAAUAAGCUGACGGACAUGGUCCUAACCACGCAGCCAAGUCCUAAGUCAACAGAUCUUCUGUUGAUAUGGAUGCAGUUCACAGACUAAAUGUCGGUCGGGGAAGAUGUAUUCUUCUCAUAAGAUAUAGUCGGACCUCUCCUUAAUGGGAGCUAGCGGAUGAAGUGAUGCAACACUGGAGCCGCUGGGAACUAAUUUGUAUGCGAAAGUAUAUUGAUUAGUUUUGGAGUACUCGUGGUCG
- details: 30 °C
quantity-measured: self-splicing fitness (ln)

Sample records with self-splicing fitness (ln):
1) CCCAAGCAAUAUUACGUGCG -4.13
2) UGUGAGCAAUAUUACGCCGG -3.85
3) UUACAGCAAUAUUACGCAUU -2.73
4) UCGCAGCAAUAUUACGAUUG -3.66
5) GUGCAGCAAUAUUACGGCCA -0.211
6) CGUAAGCAAUAUUACGGAGU -3.13

The reported value for AGUAAGCAAUAUUACGUCGA in terms of self-splicing fitness (ln) is -2.11

The reported value for CCACAGCAAUAUUACGAACA in terms of self-splicing fitness (ln) is -2.78

====

- test-details: self-splicing fitness, log relative to wild type (ln ratio); higher = more splicing; Tetrahymena group I intron in knt gene, E. coli kanamycin selection, DiMSum; sequences stand for … in CUCUCU…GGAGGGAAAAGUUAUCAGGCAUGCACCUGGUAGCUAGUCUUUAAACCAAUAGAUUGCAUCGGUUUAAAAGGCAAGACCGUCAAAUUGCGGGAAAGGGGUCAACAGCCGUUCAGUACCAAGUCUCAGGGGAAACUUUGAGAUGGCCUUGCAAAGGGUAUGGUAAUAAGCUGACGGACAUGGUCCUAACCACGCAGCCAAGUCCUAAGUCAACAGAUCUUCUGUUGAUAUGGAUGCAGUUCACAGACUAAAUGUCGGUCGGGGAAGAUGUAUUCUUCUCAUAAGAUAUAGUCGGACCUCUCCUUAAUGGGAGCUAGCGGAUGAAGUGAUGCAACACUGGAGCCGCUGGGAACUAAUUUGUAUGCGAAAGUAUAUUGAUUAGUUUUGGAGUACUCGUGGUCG
- details: 37 °C
Each record here notes measured self-splicing fitness (ln).
Lab note: write the figure by itself, no unit.

1. CUCAAGCAAUAUUACGCGAC -1.45
2. GCAUAGCAAUAUUACGCAUG -2.12

Could you now consider this next sequence?
The reported value for GACUAGCAAUAUUACGUUGA in terms of self-splicing fitness (ln) is -1.59

====

Each record here notes measured self-splicing fitness (ln).
- test-details: self-splicing fitness, log relative to wild type (ln ratio); higher = more splicing; Tetrahymena group I intron in knt gene, E. coli kanamycin selection, DiMSum; sequences stand for … in CUCUCU…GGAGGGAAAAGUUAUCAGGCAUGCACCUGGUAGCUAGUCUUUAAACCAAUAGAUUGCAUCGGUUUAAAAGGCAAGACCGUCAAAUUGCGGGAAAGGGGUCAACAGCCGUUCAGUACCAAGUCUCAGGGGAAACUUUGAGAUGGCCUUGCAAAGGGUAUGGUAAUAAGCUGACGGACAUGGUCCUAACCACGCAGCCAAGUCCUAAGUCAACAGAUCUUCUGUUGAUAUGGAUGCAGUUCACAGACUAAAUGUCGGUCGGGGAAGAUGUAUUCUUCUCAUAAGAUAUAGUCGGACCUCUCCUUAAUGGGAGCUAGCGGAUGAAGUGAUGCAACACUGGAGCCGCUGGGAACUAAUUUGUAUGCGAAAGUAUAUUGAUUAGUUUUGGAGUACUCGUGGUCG
- details: 30 °C

Sample records with self-splicing fitness (ln):
1) ACUAAGCAAUAUUACGUAGU -3.04
2) GAAAAGCAAUAUUACGAAUC -2.99
3) CAGCAGCAAUAUUACGCCCA -1.98
4) CCCGAGCAAUAUUACGUCGC -2.91
5) ACAAAGCAAUAUUACGAGGA -3.04
6) CAAUAGCAAUAUUACGGCAU -3.03
7) UCAGAGCAAUAUUACGUUUA -3.02

The reported value for CCCAAGCAAUAUUACGUCCA in terms of self-splicing fitness (ln) is -1.96
